Ref: paper PMC5615192

B1: unnamed (parent)
chain 1: EATVYLPPVPVSKVVSTDEYVSRTSIYYYAGSSRLLAVGNPYFSIKSPNNNKKVLVPKVSGLQYRVFRVRLPDPNKFGFPDTSFYNPDTQRLVWACVGLEIGRGQPLGVGVSGHPYLNKFDDTETSNRYPAQPGSDNRECLSMDYKQTQLCLIGCKPPTGEHWGKGVACNNNAAATDCPPLELFNSIIEDGDMVDTGFGCMDFGTLQANKSDVPIDICNSTCKYPDYLKMASEPYGDSLFFFLRREQMFVRHFFNRAGKLGEAVPDDLYIKGSGNTAVIQSSAFFPTPSGSIVTSESQLFNKPYWLQRAQGHNNGICWGNQLFVTVVDTTRSTNMTLCTEVTKEGTYKNDNFKEYVRHVEEYDLQFVFQLCKITLTAEIMTYIHTMDSNILEDWQFGLTPPPSASLQDTYRFVTSQAITCQKTAPPKEKEDPLNKYTFWEVNLKEKFSADLDQFPLGRKFLLQSGLKAKPRLKRSAPTTRAPSTKRKKVKK
chain 2: EVQLQQSGAELVRPGALVKLSCKASGFNIKDYYMHWVKQRPEQGLEWIGWIDPENGKTIYDPRFRGKASITADTSSNTAYLQLSSLTSEDAAVYYCATSNYRYDRSFDYWGQGTTLTVSAKTTPPSVYPLAPGCGDTTGSSVTSGCLVKGYFPEPVTVTWNSGSLSSSVHTFPALLQSGLYTMSSSVTVPSSTWPSQTVTCSVAHPASSTTVDKKL
chain 3: DIQMTQSPSSLFASLGGKVTITCKASQDINKYIAWFQHKPGKGPRLLIHYTFTLQPGIPSRFSGSGSGRDYSFSISNLEPEDIATYYCLQYHNLYTFGGGTKLEIKRADAAPTVSIFPPSSEQLTSGGASVVCFLNNFYPKDINVKWKIDGSERQNGVLNSWTDQDSKDSTYSMSSTLTLTKDEYERHNSYTCEATHKTSTSPIVKSFNRNEC

# Variants of: B1
# procedure-text: SPR (Biacore)
# assay-context: with partner chain of the complex shown; read off a plot
// reported Kd per item
recorded-endpoint: Kd

>>> result("chain 1 S135A")
"8.2 -log10, M"
>>> result("chain 1 Q132A")
"7.9 -log10, M"
>>> result("chain 1 N275A")
"6.9 -log10, M"
>>> result("chain 1 R128A")
"6 -log10, M"
>>> result("chain 1 N137A")
"8.2 -log10, M"
